Values from ChEMBL document CHEMBL1156178

- ASSAY INFO: Tmax in rat at 100 mg/kg, po
- Format: ADME, organism-based
- Parameters: dose 100 mg/kg, route oral
- COND: in vivo
QUANTITY MEASURED: Tmax

query_smiles=FC(F)(F)c1ccc(Nc2ccnc3nc(-c4ncccc4C(F)(F)F)ccc23)nc1 quantity_measured=Tmax result="6 h"

====

- ASSAY INFO: Fraction unbound in rat plasma
- Type: ADME, cell-free
QUANTITY MEASURED: fraction unbound

query_smiles=FC(F)(F)c1ccc(Nc2ccnc3nc(-c4ncccc4C(F)(F)F)ccc23)nc1 recorded_number=0.107

====

- ASSAY INFO: Cmax in rat at 1 mg/kg, po
- Type: ADME, organism-based
- Parameters: dose 1 mg/kg, route oral
- COND: in vivo
QUANTITY MEASURED: Cmax (nM)

query_smiles=FC(F)(F)c1ccc(Nc2ccnc3nc(-c4ncccc4C(F)(F)F)ccc23)nc1 quantity_measured=Cmax recorded_number=240

====

- ASSAY INFO: Tmax in rat at 1 mg/kg, iv and 1 mg/kg, po
- Assay type: ADME, organism-based
- COND: in vivo
QUANTITY MEASURED: Tmax (h)

query_smiles=FC(F)(F)c1ccc(Nc2ccnc3nc(-c4ncccc4C(F)(F)F)ccc23)nc1 unit_of_measure=h recorded_number=1.1

====

- ASSAY INFO: AUC (0 to 24 hrs) in rat at 10 mg/kg, po
- Assay type: ADME, organism-based
- Set-up: time < 24 hr, dose 10 mg/kg, route oral
- COND: plasma
QUANTITY MEASURED: AUC(0-t) at 24 h (µM·h)

query_smiles=FC(F)(F)c1ccc(Nc2ccnc3nc(-c4ncccc4C(F)(F)F)ccc23)nc1 unit_of_measure=µM·h recorded_number=22.6

====

- ASSAY INFO: Plasma concentration in carrageenan treated rat at 0.3 mg/kg, po administered 2 hrs after carrageenan challenge measured after 1 hr
- Format: ADME, organism-based
- Design: dose 0.3 mg/kg, route oral
QUANTITY MEASURED: concentration at 1 h

query_smiles=FC(F)(F)c1ccc(Nc2ccnc3nc(-c4ncccc4C(F)(F)F)ccc23)nc1 quantity_measured="concentration at 1 h" result="60 nM"

====

- ASSAY INFO: Plasma concentration in carrageenan treated rat at 1 mg/kg, po administered 2 hrs after carrageenan challenge measured after 1 hr
- Format: ADME, organism-based
- Design: dose 1 mg/kg, route oral
QUANTITY MEASURED: concentration at 1 h (nM)

query_smiles=FC(F)(F)c1ccc(Nc2ccnc3nc(-c4ncccc4C(F)(F)F)ccc23)nc1 recorded_number=300

====

- ASSAY INFO: Plasma concentration in complete Freund's adjuvant treated Sprague-Dawley rat at 1 mg/kg, po administered 24 hrs after CFA challenge after 2 hrs post dose
- Type: ADME, organism-based
- Design: dose 1 mg/kg, route oral
QUANTITY MEASURED: concentration at 2 h (nM)

query_smiles=FC(F)(F)c1ccc(Nc2ccnc3nc(-c4ncccc4C(F)(F)F)ccc23)nc1 recorded_number=100

====

- SYSTEM NAME: Mitogen-activated protein kinase 3 (Homo sapiens, UniProt P27361)
- Sequence (P27361 whole entry): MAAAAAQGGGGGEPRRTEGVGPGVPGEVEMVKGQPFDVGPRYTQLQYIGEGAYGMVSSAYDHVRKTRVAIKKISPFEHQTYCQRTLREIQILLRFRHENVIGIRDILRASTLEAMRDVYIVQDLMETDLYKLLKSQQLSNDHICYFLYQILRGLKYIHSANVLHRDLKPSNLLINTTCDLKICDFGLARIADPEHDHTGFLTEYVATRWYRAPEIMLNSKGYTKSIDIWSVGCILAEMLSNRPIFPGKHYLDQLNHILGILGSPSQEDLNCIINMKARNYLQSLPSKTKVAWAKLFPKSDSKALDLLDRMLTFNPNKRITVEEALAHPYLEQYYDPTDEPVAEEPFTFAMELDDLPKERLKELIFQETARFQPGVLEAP
- ASSAY INFO: Inhibition of human ERK1
pIC50: −log10 of the molar value.
QUANTITY MEASURED: pIC50

query_smiles=FC(F)(F)c1ccc(Nc2ccnc3nc(-c4ncccc4C(F)(F)F)ccc23)nc1 recorded_number=6.01

====

- ASSAY INFO: Cmax in rat at 100 mg/kg, po
- Type: ADME, organism-based
- Set-up: dose 100 mg/kg, route oral
- COND: in vivo
QUANTITY MEASURED: Cmax (µM)

query_smiles=FC(F)(F)c1ccc(Nc2ccnc3nc(-c4ncccc4C(F)(F)F)ccc23)nc1 quantity_measured=Cmax recorded_number=12.9

====

- ASSAY INFO: Plasma concentration in complete Freund's adjuvant treated Sprague-Dawley rat at 10 mg/kg, po administered 24 hrs after CFA challenge after 2 hrs post dose
- Type: ADME, organism-based
- Design: dose 10 mg/kg, route oral
QUANTITY MEASURED: concentration at 2 h (nM)

query_smiles=FC(F)(F)c1ccc(Nc2ccnc3nc(-c4ncccc4C(F)(F)F)ccc23)nc1 quantity_measured="concentration at 2 h" recorded_number=2300

====

- ASSAY INFO: Plasma concentration in complete Freund's adjuvant treated Sprague-Dawley rat at 3 mg/kg, po administered 24 hrs after CFA challenge after 2 hrs post dose
- Format: ADME, organism-based
- Parameters: dose 3 mg/kg, route oral
QUANTITY MEASURED: concentration at 2 h (nM)

query_smiles=FC(F)(F)c1ccc(Nc2ccnc3nc(-c4ncccc4C(F)(F)F)ccc23)nc1 quantity_measured="concentration at 2 h" unit_of_measure=nM recorded_number=230

====

- ASSAY INFO: Ratio of drug level in brain to plasma in rat at 3 mg/kg, po after 1 hr
- Assay type: ADME, organism-based
- Set-up: dose 3 mg/kg, route oral
QUANTITY MEASURED: Kp at 1 h

query_smiles=FC(F)(F)c1ccc(Nc2ccnc3nc(-c4ncccc4C(F)(F)F)ccc23)nc1 recorded_number=0.3

====

- ASSAY INFO: Plasma concentration in complete Freund's adjuvant treated Sprague-Dawley rat at 3 mg/kg, po qd for 2 days administered 24 hrs after CFA challenge after 2 hrs last post dose
- Type: ADME, organism-based
- Parameters: dose 3 mg/kg, route oral
QUANTITY MEASURED: concentration at 2 h (nM)

query_smiles=FC(F)(F)c1ccc(Nc2ccnc3nc(-c4ncccc4C(F)(F)F)ccc23)nc1 recorded_number=1330

====

- ASSAY INFO: Half life in rat at […], iv and 10 mg/kg, po
- Type: ADME, organism-based
- COND: in vivo
QUANTITY MEASURED: half-life (h)

query_smiles=Cl.FC(F)(F)c1ccc(Nc2ncnc3cc(-c4ncccc4C(F)(F)F)ccc23)cn1 unit_of_measure=h recorded_number=4

====

- ASSAY INFO: Half life in rat at 1 mg/kg, iv and 1 mg/kg, po
- Type: ADME, organism-based
- COND: in vivo
QUANTITY MEASURED: half-life

query_smiles=FC(F)(F)c1ccc(Nc2ccnc3nc(-c4ncccc4C(F)(F)F)ccc23)nc1 result="1.4 h"

====

- ASSAY INFO: Plasma concentration in complete Freund's adjuvant treated Sprague-Dawley rat at 1 mg/kg, po qd for 3 days administered 24 hrs after CFA challenge after 2 hrs last post dose
- Format: ADME, organism-based
- Set-up: dose 1 mg/kg, route oral
QUANTITY MEASURED: concentration at 2 h (nM)

query_smiles=FC(F)(F)c1ccc(Nc2ccnc3nc(-c4ncccc4C(F)(F)F)ccc23)nc1 quantity_measured="concentration at 2 h" unit_of_measure=nM recorded_number=380

====

- Organism: Homo sapiens
- ASSAY INFO: Fraction unbound in human plasma
QUANTITY MEASURED: fraction unbound

query_smiles=FC(F)(F)c1ccc(Nc2ccnc3nc(-c4ncccc4C(F)(F)F)ccc23)nc1 recorded_number=0.065

====

- ASSAY INFO: AUC (0 to 24 hrs) in rat at 100 mg/kg, po
- Format: ADME, organism-based
- Set-up: time < 24 hr, dose 100 mg/kg, route oral
- COND: plasma
QUANTITY MEASURED: AUC(0-t) at 24 h (µM·h)

query_smiles=FC(F)(F)c1ccc(Nc2ccnc3nc(-c4ncccc4C(F)(F)F)ccc23)nc1 unit_of_measure=µM·h recorded_number=204

====

- ASSAY INFO: Plasma concentration in complete Freund's adjuvant treated Sprague-Dawley rat at 3 mg/kg, po qd for 3 days administered 24 hrs after CFA challenge after 2 hrs last post dose
- Format: ADME, organism-based
- Parameters: dose 3 mg/kg, route oral
QUANTITY MEASURED: concentration at 2 h (nM)

query_smiles=FC(F)(F)c1ccc(Nc2ccnc3nc(-c4ncccc4C(F)(F)F)ccc23)nc1 quantity_measured="concentration at 2 h" recorded_number=930

====

- ASSAY INFO: Half life in rat at 2.7 mg/kg, iv and 2 mg/kg, po
- Format: ADME, organism-based
- COND: in vivo
QUANTITY MEASURED: half-life (h)

query_smiles=FC(F)(F)c1ccc(Nc2ncnc3cc(-c4ncccc4C(F)(F)F)ccc23)cc1 quantity_measured=half-life unit_of_measure=h recorded_number=8

====

- SYSTEM NAME: Transient receptor potential cation channel subfamily V member 1 (Homo sapiens, UniProt Q8NER1)
- Sequence (Q8NER1 whole entry): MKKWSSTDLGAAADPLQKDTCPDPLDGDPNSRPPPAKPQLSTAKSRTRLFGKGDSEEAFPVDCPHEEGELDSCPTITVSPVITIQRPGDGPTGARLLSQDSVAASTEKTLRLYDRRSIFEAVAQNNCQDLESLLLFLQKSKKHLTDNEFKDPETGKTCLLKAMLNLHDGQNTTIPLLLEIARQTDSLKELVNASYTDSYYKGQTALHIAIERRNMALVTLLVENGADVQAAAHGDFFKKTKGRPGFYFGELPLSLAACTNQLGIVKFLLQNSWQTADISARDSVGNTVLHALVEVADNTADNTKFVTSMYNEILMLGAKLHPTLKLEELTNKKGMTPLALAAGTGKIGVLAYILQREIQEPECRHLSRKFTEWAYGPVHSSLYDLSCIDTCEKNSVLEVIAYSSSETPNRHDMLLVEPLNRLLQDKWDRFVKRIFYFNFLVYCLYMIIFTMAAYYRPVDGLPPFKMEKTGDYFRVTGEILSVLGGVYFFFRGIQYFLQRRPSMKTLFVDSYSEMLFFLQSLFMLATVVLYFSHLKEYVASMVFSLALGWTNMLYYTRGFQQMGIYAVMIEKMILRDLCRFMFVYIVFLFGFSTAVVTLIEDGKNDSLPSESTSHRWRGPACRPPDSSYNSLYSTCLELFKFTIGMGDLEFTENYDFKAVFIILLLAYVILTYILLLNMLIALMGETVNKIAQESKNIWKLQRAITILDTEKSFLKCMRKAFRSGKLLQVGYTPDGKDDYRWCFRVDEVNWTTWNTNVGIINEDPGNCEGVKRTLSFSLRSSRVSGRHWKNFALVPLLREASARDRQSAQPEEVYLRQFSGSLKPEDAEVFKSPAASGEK
- ASSAY INFO: Antagonist activity at human recombinant TRPV1 expressed in HEK293 cells assessed as inhibition of capsaicin-induced calcium mobilization by FLIPR assay
pIC50: −log10 of the molar value.
Would you mind labelling by pIC50? At or over 9 is y, under is n.

query_smiles=FC(F)(F)c1ccc(Nc2cncc3nc(-c4ncccc4C(F)(F)F)ccc23)nc1 class_name=n
query_smiles=FC(F)(F)c1ccc(Nc2ncnc3nc(-c4ncccc4C(F)(F)F)cnc23)cc1 class_name=y
query_smiles=FC(F)(F)c1ccc(Nc2ccnc3nc(-c4ncccc4C(F)(F)F)cnc23)nc1 class_name=y
query_smiles=FC(F)(F)c1ccc(Nc2ccnc3nc(-c4ncccc4C(F)(F)F)ccc23)cc1 class_name=n
